System: SK-OV-3
assay_method_text: NCI tumour cell line growth inhibition, 48 h
The source made the active and inactive calls. Cut-off read from the data, not from the text of the source: active = GI50 up to about 1.1 µM and inactive = higher. Where a SMILES comes first, the peptide text is derived from it. [ ]: non-standard residue; d: D form. The star is where a group is joined. Bn2Val = CC(C)[C@@H](C(=O)*)N(Cc1ccccc1)Cc1ccccc1; NH(3,4-diMeO-benzyl) = COc1ccc(CN*)cc1OC; NMeV = CN[C@H](C(=O)O)C(C)C
Possible outcomes: 1 (active), -1 (inactive)

INSERT INTO assay_data (molecule, cat) VALUES
  ('Cc1c(C)c(C)c(Cn2[nH]c(=O)n(C)c2=O)c(C)c1C', -1),
  ('O=C1N/C(=N/N=C\c2ccccc2)N/C1=C/c1ccccc1', -1),
  ('O=C1OCC2(CO1)CC1C=CC2C1 (stereo not given)', -1),
  ('COc1cc(OC)c(OC)cc1/C=C/c1cnnc2ccccc12', -1),
  ('CC1CCc2c(sc3ncnc(N/N=C/c4ccc(Cl)cc4)c23)C1 (stereo not given)', -1),
  ('CO[C@H]1[C@@H](O)[C@@H](C)O[C@@H](O[C@H]2CC[C@@]3(C)[C@H](CC[C@@H]4[C@@H]3CC[C@]3(C)[C@@H](C5=CC(=O)OC5)[C@@H](OC(C)=O)C[C@]43O)C2)[C@@H]1O [NERITALOSIDE]', 1),
  ('N#Cc1cc2c(cc1Cl)Sc1nccn1S2(=O)=O', -1),
  ('COc1cc2c(cc1OC)C(=O)/C(=C/c1ccc(O)cc1)CC2', -1),
  ('CSC1=N/C(=C\c2cccs2)C(=O)N1CN1CCCCC1', -1),
  ('COc1ccc(CNC(=O)[C@@H]2CCCN2C(=O)[C@@H]2CCCN2C(=O)[C@H](C(C)C)N(C)C(=O)[C@@H](NC(=O)[C@H](C(C)C)N(Cc2ccccc2)Cc2ccccc2)C(C)C)cc1OC (Bn2Val-V[NMeV]PP-{NH(3,4-diMeO-benzyl)})', -1);

---

Test system: DU-145
assay_method_text: NCI tumour cell line growth inhibition, 48 h
Calls of active or inactive are those of the source. No stated cut-off is given here; in the data, active = GI50 up to about 1.1 µM and inactive = higher. Peptide text beside a SMILES is read from it. * marks the point of attachment. Boc = CC(C)(C)OC(=O)*
The entries below come with measured GI50 values attached.
metric_name: GI50

INSERT INTO measurements (compound, endpoint_result) VALUES
  ('CSC1=N/C(=C\c2cccs2)C(=O)N1CN1CCCCC1', '> 100 µM (inactive)'),
  ('C=CCn1cnc2c(O)nc(Nc3ccccc3)nc21', '> 100 µM (inactive)'),
  ('Cc1cc(N(CCOS(C)(=O)=O)CCOS(C)(=O)=O)ccc1/C=N/c1ccc(-c2nc(Cc3ccccc3)sc2C)cc1', '0.834 µM (active)'),
  ('COc1c(O)ccc(C2=Cc3ccc(O)cc3OC2)c1OC', '26.7 µM (inactive)'),
  ('Cc1cc(C)c(S(=O)(=O)N(CCCN)OCCON(CCCN)S(=O)(=O)c2c(C)cc(C)cc2C)c(C)c1', '5.68 µM (inactive)'),
  ('CC(=O)Nc1cc(C(=O)Nc2cc(C(=O)N3CC(CCl)c4c3cc(N)c3ccccc43)nn2C)nn1C (stereo not drawn)', '< 0.01 µM (active)'),
  ('CCOCC(NC(=O)C(CC(C)C)NC(=O)OC(C)(C)C)C(N)=O (stereo not drawn) (Boc-Leu-Ser(Et)-NH2; configuration not given here)', '> 100 µM (inactive)'),
  ('CCOC(=O)C(NC(=O)NC(C(=O)OCC)C(=O)OCC)C(=O)OCC', '> 100 µM (inactive)'),
  ('Cc1c2ccccc2c(C)n2c1nc1cc(Cl)c(Cl)cc12', '> 10 µM (inactive)'),
  ('CCOC(=O)CCC(NC(=O)c1ccc(Oc2nc3ccccc3nc2C(=O)OCC)cc1)C(=O)OCC (stereo not drawn)', '> 100 µM (inactive)'),
  ('COc1cc(-c2c3c(cc4c2OCO4)[C@@H](Nc2ccc(-c4ccc(-c5ccc(N[C@@H]6c7cc8c(cc7C(c7cc(OC)c(O)c(OC)c7)[C@H]7C(=O)OC[C@H]67)OCO8)cc5)cc4)cc2)[C@H]2COC(=O)[C@@H]2C3)cc(OC)c1O (stereo partly drawn)', '1.93 µM (inactive)'),
  ('CCOC(=O)/C(C#N)=N\Nc1ccc(-n2c(C)nc3ccccc3c2=O)cc1', '77.6 µM (inactive)'),
  ('CC(C)NC(=O)OCc1c(COC(=O)NC(C)C)c(-c2cc[n+](COC(=O)C3CCCCC3)cc2)n2c1CCC2', '> 100 µM (inactive)'),
  ('C[n+]1c2ccccc2c(C(=O)NC(CCCNC(=N)N)C(=O)O)c2ccccc21 (stereo not drawn)', '> 100 µM (inactive)'),
  ('COc1cc([C@@H]2C3C(=O)c4ccccc4C3[C@@H](c3cc(OC)c(OC)c(OC)c3)C23Cc2ccccc2C3=O)cc(OC)c1OC (stereo partly drawn)', '> 100 µM (inactive)'),
  ('CC1=COC(C)(C=C(C#N)C#N)CC1 (stereo not drawn)', '> 100 µM (inactive)'),
  ('N#C[BH2-][n+]1cn(C2CC(O)C(COP(=O)(O)OC3CC(n4ccc(N)nc4=O)OC3CO)O2)c2nc(N)[nH]c(=O)c21 (stereo not drawn)', '> 100 µM (inactive)'),
  ('Cc1[nH]c(-c2ccccc2)c(O)c1C(=O)OC12CC3CC(CC(C3)C1)C2', '15.6 µM (inactive)');

---

Tested on: PC-3
assay_method_text: NCI tumour cell line growth inhibition, 48 h
The source made the active and inactive calls. No stated cut-off is given here; in the data, active = GI50 up to about 1.1 µM and inactive = higher. Peptide text beside a SMILES is read from it. * marks the point of attachment. Boc = CC(C)(C)OC(=O)*
Possible outcomes: 1 = active, 0 = inactive

INSERT INTO measurements (compound, cat) VALUES
  ('CN1CCCN(C)C1c1cc([N+](=O)[O-])ccc1O', 0),
  ('COc1cccc2c1C(=O)OC2c1cccc2ccccc12 (configuration not stated)', 0),
  ('C=CCCC1CCCCC/C1=N\N(C)C (configuration not stated)', 0),
  ('COc1cc(C(=O)n2c3ccc(Br)cc3c3nc4ccccc4nc32)cc(OC)c1OC', 0),
  ('CCOC(=O)c1cccn1S(=O)(=O)c1cc(Cl)ccc1NC(=O)CC', 0),
  ('COC(=O)c1ccccc1NC(=O)C(=O)CC(=O)c1ccccc1NC1=CC(=O)C(=O)c2ccccc21', 0),
  ('CC(=O)NNc1nc(-c2ccc([N+](=O)[O-])cc2)c(C#N)c(=O)n1C', 0),
  ('Cc1cccc2cc3ccc4ccccc4c3cc12', 0),
  ('COc1cc(S(=O)(=O)Nc2ccc(-c3csc(N)n3)cc2)ccc1Cl', 0),
  ('CN(C)N1C(=O)CC2(CCN(CCCC(=O)c3ccc(F)cc3)CC2)C1=O', 0),
  ('[N-]=[N+]=CC(=O)OCC1NC(=O)C(COC(=O)C=[N+]=[N-])NC1=O (configuration not stated)', 0),
  ('c1ccc2c(NCCCCCCCCNc3c4ccccc4nc4ccccc34)c3ccccc3nc2c1', 1),
  ('COc1ccc(NC(=O)/C(=N/NC(N)=S)C2C(=O)NC(=S)NC2=O)c(OC)c1', 0),
  ('Cn1c2ccccc2c(=O)c2cccc(C(=O)NC(CCCNC(=N)N)C(=O)O)c21 (configuration not stated)', 0),
  ('CC1CNc2ccccc2N=C1NN (configuration not stated)', 0),
  ('COc1c(OC)c(O)c2c(=O)c(OC)c(-c3ccc4c(c3)OCO4)oc2c1O', 0),
  ('NC(N)=NCCC[C@H](N)C(=O)NCC(=O)N[C@@H](CC(=O)O)c1ncc(NC(=O)C(F)(F)F)o1', 0),
  ('O=C(c1ccccn1)C1(N2CCCCC2)CCCCC1', 0),
  ('CCOC(=O)/C(C#N)=N\Nc1ccc(-n2c(C)nc3ccccc3c2=O)cc1', 0),
  ('CSCCC(NC(=O)Cc1ccc(C(=O)c2ccccc2)cc1)C(=O)N1CCN(CCCCN2c3ccccc3Sc3cc(N=[N+]=[N-])ccc32)CC1 (configuration not stated)', 0),
  ('N#CC1(C#N)C2CCCCC23OC(=N)C1(C#N)C(c1ccco1)O3 (configuration not stated)', 0),
  ('COc1ccccc1/C=C/C1=NN(c2cccc(S(=O)(=O)O)c2)C2(C1)SCC(=O)N2c1nc2ccccc2s1 (configuration not stated)', 0),
  ('O=C1Nc2ccccc2/C1=N/Nc1ncccc1[N+](=O)[O-]', 0),
  ('CC1(C)OC(=C(C#N)C#N)C(C#N)=C1/C=C/c1ccncc1', 0),
  ('CC(C)(C)OC(=O)NCCC1CN(C(=O)c2ccccc2)c2ccccc21 (configuration not stated)', 0),
  ('O=C(NC(=O)c1cc(-c2ccccc2)n[nH]1)c1ccccc1', 0),
  ('N#CC1=C(Nc2ccccc2)SC=C(c2ccccc2)N=C1NCc1ccccc1', 0),
  ('CCCn1c2c(c3ccccc3c1=O)C(=O)c1ccccc1-2', 0),
  ('CCOC(C[Se]CC(OCC)OCC)OCC', 0),
  ('N#C/C(C(=O)CCl)=C1\Nc2ccccc2O1', 0),
  ('CCOCC(NC(=O)C(CC(C)C)NC(=O)OC(C)(C)C)C(N)=O (stereo not drawn) (Boc-Leu-Ser(Et)-NH2; configuration not given here)', 0),
  ('CCOc1cc(CC[N+](C)(C)C)c2c(ccc3ccc(OC)c(OC)c32)c1OC', 0);

Sourced from ChEMBL document CHEMBL1201862
